# assay.details: Salt screen: HT-XRPD after accelerated aging conditions
# Assay type: physicochemical
# condition.details: 1-Butanol; solid form by HT-XRPD after 40° C., 75% RH for two days; code+number = crystalline salt polymorph, 0 = crystalline counter ion itself

{"columns": ["compound", "XRPD 2"],
 "data": [
  ["O=C1O[C@H]([C@@H](O)CO)C(O)=C1O", "Amorphous"],
  ["O=C(O)C(=O)O", "Oxa3"],
  ["Cl [Hydrochloric acid]", "Amorphous"],
  ["O=C(O)/C=C/C(=O)O", "Amorphous"],
  ["O=S(=O)(O)c1ccccc1", "Amorphous"],
  ["N[C@@H](CC(=O)O)C(=O)O", "Asp0"]
]}
